- method_description: Plasma protein binding (rapid equilibrium dialysis)
- Assay type: in vitro ADME
- condition_info: Human plasma; read-out: % Bound in Plasma ± SD (converted)
measured_property: fraction unbound at 5 h, 10 µM
Please give only the number in your answer, with no unit.

Fill in the blank: the reported fraction unbound at 5 h, 10 µM of `CCCCc1cn(-c2ccc(-c3nnc(-c4ccccc4C(F)(F)F)o3)cc2)nn1` is ____.
0.0022

* * *

- method_description: Pharmacokinetic studies, single administration
- Format: in vivo, male Swiss albino mice
- condition_info: mouse, plasma; I.T., 0.08 mg/kg; read-out: MRT0-last
measured_property: MRT last
Report field: quantity (unit follows the number).

Fill in the blank: the reported MRT last of CCCCc1cn(-c2ccc(-c3nnc(-c4ccccc4C(F)(F)F)o3)cc2)nn1 [Compound 5] is ____.
43.2 min
